Listed next: entries and their corresponding Nutsedge plant response rating.
- System: purple nutsedge
- assay_overview: Test B pre/postemergence purple nutsedge
- Format: in vivo, Cyperus rotundus
- test_context: Rate 500 g/ha, Postemergence; scale 0 to 10, 0 no effect, 10 complete control
Output spec: single numeric token, no unit.

Answered examples (3):
Cc1cccc(C(C)C)c1-n1c(=O)on(C(=O)N(c2ccccc2)C(C)C)c1=O [Compound 66] | 0
CC(C)N(C(=O)n1oc(=O)n(C(C)C)c1=O)c1ccc(F)cc1F [Compound 109] | 4
Cc1noc(C)c1Cn1c(=O)on(C(=O)N(c2ccc(F)cc2)C(C)C)c1=O [Compound 259] | 0

Req: Consider the compound shown here: CCN(C(=O)n1oc(=O)n(C)c1=O)C1CCCCC1 [Compound 228] What is its recorded Nutsedge plant response rating?
Resp: 0

* * *

- System: giant foxtail
- assay_overview: Test B pre/postemergence giant foxtail
- Type: in vivo, Setaria faberii
- test_context: Rate 125 g/ha, Postemergence; scale of 0 to 10 where 0 is no effect and 10 is complete control
- Protocol: […] At the same time, these crop and weed species were also treated with postemergence applications of test chemicals formulated in the same manner. […] Treated plants and controls were maintained in a greenhouse for twelve to sixteen days, after which all species were compared to controls and visually evaluated. […]
outcome_measure: Giant foxtail plant response rating
Output spec: single numeric token, no unit.

CCc1cccc(CC)c1-n1c(=O)on(C(=O)N(c2ccccc2)C(C)C)c1=O | 0
CCOC(=O)C(C)N(C(=O)n1oc(=O)n(C(C)C)c1=O)c1ccc(F)cc1 (stereo not shown) | 1

Req: Recall the recorded Giant foxtail plant response rating for `CC(C)N(C(=O)n1oc(=O)n(C2CC2)c1=O)c1ccc(F)cc1F` with giant foxtail and state it.
Resp: 7

Req: Then what about the molecule COCC(C)N(C(=O)n1oc(=O)n(-c2ccccc2C)c1=O)c1ccc(F)cc1 (stereo not shown) ?
Resp: 0

* * *

- Tested on: velvetleaf
- assay_overview: Test B pre/postemergence velvetleaf
- Type: in vivo, Abutilon theophrasti
- test_context: Preemergence, Rate 500 g/ha; scale of 0 to 10 where 0 is no effect and 10 is complete control
Listed next: entries and their corresponding Velvetleaf plant response rating.
Output spec: single numeric token, no unit.

CC(C)N(C(=O)n1oc(=O)n(CCC(F)(F)F)c1=O)c1ccc(Cl)cc1 | 0

Req: Consider the molecule shown here: CCOC(=O)C(C)N(C(=O)n1oc(=O)n(C(C)C)c1=O)c1ccc(F)cc1 (stereo not shown) What is its recorded Velvetleaf plant response rating?
Resp: 0

Req: Then what about the molecule `Cc1noc(C)c1Cn1c(=O)on(C(=O)N(c2ccc(F)cc2F)C(C)C)c1=O` ?
Resp: 6

Req: Then what about the molecule `COC(=O)CCCn1c(=O)on(C(=O)N(c2ccc(Cl)cc2)C(C)C)c1=O` ?
Resp: 0

* * *

- Test system: bedstraw
- assay_overview: Test B pre/postemergence bedstraw
- Format: in vivo, Galium aparine
- test_context: Postemergence, Rate 62 g/ha; scale 0 to 10, 0 is no effect, 10 is complete control
Listed next: entries and their corresponding Plant response rating, Bedstraw.

Answered examples (3):
CC(C)N(C(=O)n1oc(=O)n(Cc2nnc(Cl)s2)c1=O)c1ccc(F)cc1F | 0
C#CCCn1c(=O)on(C(=O)N(c2ccc(F)cc2)C(C)C)c1=O | 7
CC(C)N(C(=O)n1oc(=O)n(CCCCl)c1=O)c1ccccc1 | 5

Req: Recall the recorded Plant response rating, Bedstraw for CC(C)N(C(=O)n1oc(=O)n(C(C)C2=NOCC2)c1=O)c1ccc(Cl)cc1 (racemic) with bedstraw and state it.
Resp: 0

Req: Then what about the compound `CCOC(Cn1c(=O)on(C(=O)N(c2ccc(Cl)cc2)C(C)C)c1=O)OCC` ?
Resp: 0

Req: Then what about the compound `COc1ccc(N(C(=O)n2oc(=O)n(C(C)C)c2=O)C(C)C)cc1` ?
Resp: 0

Req: Then what about the compound `CCOC(Cn1c(=O)on(C(=O)N(c2ccc(F)cc2F)C(C)C)c1=O)OCC` ?
Resp: 0
